tested on: Escherichia coli; test: Antibacterial activity against Escherichia coli expressing APH(3')-Ib; format: functional
Reported MIC values follow for various molecules
readout_name: MIC (µg/mL)

[
  {
    "molecular_string": "NCC[C@H](O)C(=O)N[C@@H]1C[C@H](N)[C@@H](O[C@H]2O[C@H](CO)[C@@H](O)[C@H](O)[C@H]2N)[C@H](O[C@@H]2O[C@H](CO)[C@@H](O[C@H]3O[C@@H](CN)[C@@H](O)[C@H](O)[C@H]3N)[C@H]2O)[C@H]1O",
    "recorded_value": 2
  },
  {
    "molecular_string": "NCC[C@H](O)C(=O)N[C@@H]1C[C@H](N)[C@@H](O[C@H]2OC(CN)=CC[C@H]2N)[C@H](O[C@@H]2O[C@H](CO)[C@@H](O)[C@H]2O)[C@H]1O",
    "recorded_value": 4
  },
  {
    "molecular_string": "CN[C@@H](C)[C@@H]1CC[C@@H](N)[C@@H](O[C@H]2[C@H](O)[C@@H](O[C@H]3OC[C@](C)(O)[C@H](NC)[C@H]3O)[C@H](N)C[C@@H]2N)O1",
    "recorded_value": 0.25
  },
  {
    "molecular_string": "NCC[C@H](O)C(=O)N[C@@H]1C[C@H](N)[C@@H](O[C@H]2OC(CN)=CC[C@H]2N)[C@H](O[C@@H]2O[C@H](CO)[C@@H](O[C@@H]3O[C@H](CN)[C@H](O)[C@@H](O)[C@@H]3N)[C@H]2O)[C@H]1O",
    "recorded_value": 0.25
  }
]

====

tested on: Staphylococcus aureus; assay: Antibacterial activity against Staphylococcus aureus expressing AAC(6')/APH(2''); type: functional
readout_name: MIC

[
  {
    "molecular_string": "NC[C@H]1O[C@H](O[C@H]2[C@H](O[C@@H]3O[C@H](CO)[C@@H](O)[C@H]3O)[C@@H](O)[C@H](N)C[C@@H]2N)[C@H](N)[C@@H](O)[C@@H]1O",
    "readout_name": "MIC",
    "recorded_value": "> 64 µg/mL"
  },
  {
    "molecular_string": "NCC[C@H](O)C(=O)N[C@@H]1C[C@H](N)[C@@H](O[C@H]2OC(CN)=CC[C@H]2N)[C@H](O[C@@H]2O[C@H](CO)[C@@H](O)[C@H]2O)[C@H]1O",
    "readout_name": "MIC",
    "recorded_value": "16 µg/mL"
  },
  {
    "molecular_string": "NCC1=CC[C@@H](N)[C@@H](O[C@H]2[C@H](O[C@@H]3O[C@H](CO)[C@@H](O)[C@H]3O)[C@@H](O)[C@H](N)C[C@@H]2N)O1",
    "readout_name": "MIC",
    "recorded_value": "> 64 µg/mL"
  },
  {
    "molecular_string": "NC[C@@H]1O[C@H](O[C@H]2[C@@H](O)[C@H](O[C@@H]3[C@@H](O)[C@H](N)C[C@H](N)[C@H]3O[C@H]3O[C@H](CO)[C@@H](O)[C@H](O)[C@H]3N)O[C@@H]2CO)[C@H](N)[C@@H](O)[C@@H]1O",
    "readout_name": "MIC",
    "recorded_value": "> 64 µg/mL"
  },
  {
    "molecular_string": "NCC[C@H](O)C(=O)N[C@@H]1C[C@H](N)[C@@H](O[C@H]2O[C@H](CN)[C@@H](O)[C@H](O)[C@H]2N)[C@H](O[C@@H]2O[C@H](CO)[C@@H](O)[C@H]2O)[C@H]1O",
    "readout_name": "MIC",
    "recorded_value": "> 32 µg/mL"
  },
  {
    "molecular_string": "NCC[C@H](O)C(=O)N[C@@H]1C[C@H](N)[C@@H](O[C@H]2OC(CN)=CC[C@H]2N)[C@H](O[C@@H]2O[C@H](CO)[C@@H](O[C@@H]3O[C@H](CN)[C@H](O)[C@@H](O)[C@@H]3N)[C@H]2O)[C@H]1O",
    "readout_name": "MIC",
    "recorded_value": "2 µg/mL"
  }
]

====

system: Escherichia coli; test: Antibacterial activity against Escherichia coli expressing APH(3')-Ib; format: functional

[
  {
    "compound": "NCC[C@H](O)C(=O)N[C@@H]1C[C@H](N)[C@@H](O[C@H]2O[C@H](CN)[C@@H](O)[C@H](O)[C@H]2N)[C@H](O[C@@H]2O[C@H](CO)[C@@H](O)[C@H]2O)[C@H]1O",
    "test_system": "Escherichia coli",
    "qualifier_sign": "=",
    "MIC, µg/mL": 1
  },
  {
    "compound": "NCC1O[C@H](O[C@H]2[C@@H](O)[C@H](O[C@H]3[C@H](O)[C@@H](N)C[C@@H](N)[C@@H]3O[C@H]3O[C@H](CN)[C@@H](O)[C@H](O)[C@H]3N)O[C@@H]2CO)[C@H](N)[C@@H](O)[C@@H]1O (stereo not given in full)",
    "test_system": "Escherichia coli",
    "qualifier_sign": "=",
    "MIC, µg/mL": 64
  },
  {
    "compound": "CN[C@@H]1[C@@H](O)[C@@H](O[C@@H]2[C@@H](O)[C@H](O[C@H]3OC(CN)=CC[C@H]3N)[C@@H](N)C[C@H]2N)OC[C@]1(C)O",
    "test_system": "Escherichia coli",
    "qualifier_sign": "=",
    "MIC, µg/mL": 0.25
  },
  {
    "compound": "CNCC1=CC[C@H](N)[C@H](O[C@H]2[C@H](O[C@@H]3O[C@H](CO)[C@@H](O[C@@H]4O[C@H](CN)[C@H](O)[C@@H](O)[C@@H]4N)[C@H]3O)[C@@H](O)[C@H](N)C[C@@H]2N)O1",
    "test_system": "Escherichia coli",
    "qualifier_sign": ">",
    "MIC, µg/mL": 64
  },
  {
    "compound": "NC[C@@H]1O[C@H](O[C@H]2[C@@H](O)[C@H](O[C@@H]3[C@@H](O)[C@H](N)C[C@H](N)[C@H]3O[C@H]3O[C@H](CO)[C@@H](O)[C@H](O)[C@H]3N)O[C@@H]2CO)[C@H](N)[C@@H](O)[C@@H]1O",
    "test_system": "Escherichia coli",
    "qualifier_sign": ">",
    "MIC, µg/mL": 64
  }
]

====

system: Pseudomonas aeruginosa; assay: Antibacterial activity against Pseudomonas aeruginosa ATCC 27853 expressing APH(3')-IIa; assay type: functional

[
  {
    "compound": "NCC1O[C@H](O[C@H]2[C@@H](O)[C@H](O[C@H]3[C@H](O)[C@@H](N)C[C@@H](N)[C@@H]3O[C@H]3O[C@H](CN)[C@@H](O)[C@H](O)[C@H]3N)O[C@@H]2CO)[C@H](N)[C@@H](O)[C@@H]1O (stereo not given in full)",
    "qualifier_sign": "=",
    "MIC [µg/mL]": 32
  },
  {
    "compound": "N[C@@H]1CC=C(CO)O[C@@H]1O[C@H]1[C@H](O[C@@H]2O[C@H](CO)[C@@H](O)[C@H]2O)[C@@H](O)[C@H](N)C[C@@H]1N",
    "qualifier_sign": ">",
    "MIC [µg/mL]": 64
  },
  {
    "compound": "NCC1=CC[C@@H](N)[C@@H](O[C@H]2[C@H](O[C@@H]3O[C@H](CO)[C@@H](O)[C@H]3O)[C@@H](O)[C@H](N)C[C@@H]2N)O1",
    "qualifier_sign": "=",
    "MIC [µg/mL]": 16
  },
  {
    "compound": "NCC[C@H](O)C(=O)N[C@@H]1C[C@H](N)[C@@H](O[C@H]2O[C@H](CN)[C@@H](O)[C@H](O)[C@H]2O)[C@H](O)[C@H]1O[C@H]1O[C@H](CO)[C@@H](O)[C@H](N)[C@H]1O [AMIKACIN]",
    "qualifier_sign": "=",
    "MIC [µg/mL]": 2
  },
  {
    "compound": "NC[C@@H]1O[C@H](O[C@H]2[C@@H](O)[C@H](O[C@@H]3[C@@H](O)[C@H](N)C[C@H](N)[C@H]3O[C@H]3O[C@H](CO)[C@@H](O)[C@H](O)[C@H]3N)O[C@@H]2CO)[C@H](N)[C@@H](O)[C@@H]1O [PAROMOMYCIN]",
    "qualifier_sign": ">",
    "MIC [µg/mL]": 64
  },
  {
    "compound": "CNCC1=CC[C@H](N)[C@H](O[C@H]2[C@H](O[C@@H]3O[C@H](CO)[C@@H](O[C@@H]4O[C@H](CN)[C@H](O)[C@@H](O)[C@@H]4N)[C@H]3O)[C@@H](O)[C@H](N)C[C@@H]2N)O1",
    "qualifier_sign": "=",
    "MIC [µg/mL]": 2
  },
  {
    "compound": "NCC[C@H](O)C(=O)N[C@@H]1C[C@H](N)[C@@H](O[C@H]2O[C@H](CO)[C@@H](O)[C@H](O)[C@H]2N)[C@H](O[C@@H]2O[C@H](CO)[C@@H](O[C@H]3O[C@@H](CN)[C@@H](O)[C@H](O)[C@H]3N)[C@H]2O)[C@H]1O",
    "qualifier_sign": "=",
    "MIC [µg/mL]": 8
  },
  {
    "compound": "NCC1=CC[C@H](N)[C@H](O[C@H]2[C@H](O[C@@H]3O[C@H](CO)[C@@H](O[C@@H]4O[C@H](CN)[C@H](O)[C@@H](O)[C@@H]4N)[C@H]3O)[C@@H](O)[C@H](N)C[C@@H]2N)O1 (stereo in doubt)",
    "qualifier_sign": "=",
    "MIC [µg/mL]": 0.5
  },
  {
    "compound": "CN[C@@H]1[C@@H](O)[C@@H](O[C@@H]2[C@@H](O)[C@H](O[C@H]3OC(CN)=CC[C@H]3N)[C@@H](N)C[C@H]2N)OC[C@]1(C)O [SISOMICIN]",
    "qualifier_sign": "=",
    "MIC [µg/mL]": 0.5
  },
  {
    "compound": "NC[C@H]1O[C@H](O[C@H]2[C@H](O[C@@H]3O[C@H](CO)[C@@H](O)[C@H]3O)[C@@H](O)[C@H](N)C[C@@H]2N)[C@H](N)[C@@H](O)[C@@H]1O [RIBOSTAMYCIN]",
    "qualifier_sign": ">",
    "MIC [µg/mL]": 64
  },
  {
    "compound": "NCC[C@H](O)C(=O)N[C@@H]1C[C@H](N)[C@@H](O[C@H]2O[C@H](CN)[C@@H](O)[C@H](O)[C@H]2N)[C@H](O[C@@H]2O[C@H](CO)[C@@H](O)[C@H]2O)[C@H]1O",
    "qualifier_sign": ">",
    "MIC [µg/mL]": 32
  },
  {
    "compound": "NCC[C@H](O)C(=O)N[C@@H]1C[C@H](N)[C@@H](O[C@H]2OC(CN)=CC[C@H]2N)[C@H](O[C@@H]2O[C@H](CO)[C@@H](O)[C@H]2O)[C@H]1O",
    "qualifier_sign": "=",
    "MIC [µg/mL]": 4
  },
  {
    "compound": "NC[C@H]1O[C@@H](O[C@H]2[C@@H](O)[C@H](O[C@@H]3[C@@H](O)[C@H](N)C[C@H](N)[C@H]3O[C@@H]3OC(CO)=CC[C@@H]3N)O[C@@H]2CO)[C@@H](N)[C@H](O)[C@H]1O (stereo in doubt)",
    "qualifier_sign": ">",
    "MIC [µg/mL]": 64
  },
  {
    "compound": "NCC[C@H](O)C(=O)N[C@@H]1C[C@H](N)[C@@H](O[C@H]2OC(CN)=CC[C@H]2N)[C@H](O[C@@H]2O[C@H](CO)[C@@H](O[C@@H]3O[C@H](CN)[C@H](O)[C@@H](O)[C@@H]3N)[C@H]2O)[C@H]1O",
    "qualifier_sign": "=",
    "MIC [µg/mL]": 0.25
  },
  {
    "compound": "CN[C@@H](C)[C@@H]1CC[C@@H](N)[C@@H](O[C@H]2[C@H](O)[C@@H](O[C@H]3OC[C@](C)(O)[C@H](NC)[C@H]3O)[C@H](N)C[C@@H]2N)O1",
    "qualifier_sign": "=",
    "MIC [µg/mL]": 0.5
  }
]
